# System: SW-620 colon
# method-description: NCI tumour cell line growth inhibition, 48 h; in the data active = GI50 below about 0.43 µM; inactive = the rest
Please answer using one outcome listed in label 1 (active), label 0 (inactive)

Outcome logged for `C=CC(=O)Nc1cccc(Oc2nc(Nc3ccc(N4CCN(C)CC4)cc3OC)ncc2Cl)c1` in this assay:
label 0

Outcome logged for `Nc1nn(C(=O)Nc2c(F)cccc2F)c2ccccc12` in this assay:
label 0

Outcome logged for `CCOC(=O)c1cc(NS(=O)(=O)c2ccc(C)cc2)cc(C(=O)OCC)c1` in this assay:
label 0

Outcome logged for `CC[PH+](CC)CC.CC[PH+](CC)CC.[Au]` in this assay:
label 0

Outcome logged for O=C1c2c(Cl)c(Cl)c(Cl)c(Cl)c2C(=O)C2(Cl)CC=CCC12Cl (stereo not drawn) in this assay:
label 0

Outcome logged for `CCCN(CCC)c1ccc(C=O)c(C)c1` in this assay:
label 0

Outcome logged for `CCCCCCCCCCCCCCCCN(CC)CC` in this assay:
label 0

Outcome logged for `COc1ccc(NC(=O)c2ccc(NC3=C(Cl)C(=O)N(Cc4ccccc4)C3=O)cc2)c(OC)c1` in this assay:
label 0

Outcome logged for Cc1ccsc1-c1ccc2c(c1)COC2(CCCN(C)C)c1ccc(F)cc1 (stereo not drawn) in this assay:
label 0

Outcome logged for `C=CCOC(=O)Nc1cccn([C@H](CC(C)C)C(=O)NCCC(C)C)c1=O` in this assay:
label 0

Outcome logged for `Oc1ccccc1/C=N\NC(=S)N/N=C/c1ccccc1O` in this assay:
label 0

Outcome logged for `O=C1c2cc(F)ccc2-c2c1c1ccc([N+](=O)[O-])cc1c(=O)n2CCCBr` in this assay:
label 0

Outcome logged for `Cc1ccc(OCCOCCOCCOCCOCCOc2ccc(C)n(O)c2=S)c(=S)n1O` in this assay:
label 1

Outcome logged for CC(C)Cc1ccc(C(C)C(=O)NCc2ccc(Cn3c(=O)sn(CCCI)c3=O)cc2)cc1 (stereo not drawn) in this assay:
label 1

Outcome logged for `COc1cc(CCC(=O)NC[C@@H](O)c2ccccc2)ccc1O` in this assay:
label 0

Outcome logged for `CC(=O)N[C@@H](Cc1ccc(OP(=O)(O)O)cc1)C(=O)N[C@H]1CCC(=O)N2CCC[C@@H](C(=O)NCc3ccccc3)N2C1=O` in this assay:
label 0

Outcome logged for `O=c1oc2ccc(Br)cc2c(=O)n1-c1ccc(Cl)cc1F` in this assay:
label 0

Outcome logged for `COc1ccc(Cn2cc3c(c2-c2cc(OC)c(OC)c(OC)c2)CCc2c(CO)noc2-3)cc1` in this assay:
label 1

Outcome logged for N#CC1=C(N)Oc2c(sc3c(Br)cccc23)C1c1ccc(Cl)cc1 (stereo not drawn) in this assay:
label 1

Outcome logged for `O=C1NC(=NCCc2ccccn2)S/C1=C\c1ccc2ncccc2c1` in this assay:
label 0

Outcome logged for `Cn1c(-c2c(N)n(Cc3ccc(F)cc3)c3nc(C#N)c(C#N)nc23)nc2ccccc21` in this assay:
label 0

Outcome logged for `CN(C)CCOc1ccccc1NC1=C(Cl)C(=O)C(Nc2ccccc2OCCN(C)C)=C(Cl)C1=O` in this assay:
label 0

Outcome logged for `COc1ccc(-c2[nH]nc(N)c2-c2cc(OC)c(OC)c(OC)c2)cc1` in this assay:
label 1

* * *

# Tested on: SF-295 CNS
# method-description: NCI tumour cell line growth inhibition, 48 h
Would you mind telling me the reported TGI of each entry?

Using known records, supply TGI for CCCC[C@H]1C(=O)O[C@H](C)[C@H](NC(=O)c2cccc(NC=O)c2OC)C(=O)O[C@@H](C)[C@@H]1OC(=O)CC(C)C (tested in a mixture with another compound)
30.3 µM

Using known records, supply TGI for `Nc1nn(C(=O)Nc2c(F)cccc2F)c2ccccc12`
> 100 µM

Using known records, supply TGI for CC1=N[C@@](C)(C2CC3C=CC2C3=O)COC1=O (some centres undefined)
> 100 µM

Using known records, supply TGI for `COC(=O)c1oc2c(C(=O)/C=C/c3ccc(OC)cc3)c(OCCN3CCOCC3)ccc2c1C`
5.2 µM

Using known records, supply TGI for `O=c1[nH]c2cc([N+](=O)[O-])c(N/N=C/c3ccc(Cl)cc3Cl)c([N+](=O)[O-])c2[nH]1`
> 100 µM

Using known records, supply TGI for `NC(=O)Cn1c(=O)oc2cc(C(=O)CN3CCOCC3)ccc21`
> 100 µM

Using known records, supply TGI for COC(=O)C(c1ccc(OC)cc1)N1C(=O)[C@@H](NC(=O)c2ccccc2)[C@H]1[C@@H](C)O (some centres undefined)
> 100 µM

Using known records, supply TGI for `COC(=O)Cn1c(=O)oc2nc(-c3ccccc3)cc(C(F)(F)F)c21`
> 100 µM

Using known records, supply TGI for COc1cc(O)c2c(c1)C(=O)C1=C(C2=O)C(O)C[C@@](C)(O)C1 (some centres undefined)
7.32 µM
